Tested on: HOP-62
EXPERIMENT: Cytotoxicity against human HOP62 cell line
Type: functional
PARAMETER_MEASURED: GI50

{"COMPOUND": "COc1cc2c3c(n(CCCN4CCOCC4)c(=O)c2cc1OC)-c1cc2c(cc1C3=O)OCO2", "GI50": "1780 nM"}

Quick check: GI50 of `COc1cc2c3c(n(CCCN4CCNCC4)c(=O)c2cc1OC)-c1cc2c(cc1C3=O)OCO2` ?
< 5 nM

Next compound: `COc1cc2c3c(n(CCCn4ccnc4)c(=O)c2cc1OC)-c1ccccc1C3=O`
< 10 nM

====

System: HOP-62
EXPERIMENT: Cytotoxicity against human HOP62 cell line
Assay type: functional
Please respond with criterion met when measured GI50 is strictly beneath 3000 nM, and with criterion not met in all other cases.

Examples from the recorded data:
{"COMPOUND": "COc1cc2c3c(n(CCCN4CCCNCC4)c(=O)c2cc1OC)-c1cc2c(cc1C3=O)OCO2", "STUDY_TARGET": "HOP-62", "CAT": "criterion met"}
{"COMPOUND": "COc1cc2c3c(n(CCCNCCN4CCOCC4)c(=O)c2cc1OC)-c1cc2c(cc1C3=O)OCO2", "STUDY_TARGET": "HOP-62", "CAT": "criterion met"}
{"COMPOUND": "O=C1c2ccccc2-c2c1c1ccccc1c(=O)n2CCCn1ccnc1", "STUDY_TARGET": "HOP-62", "CAT": "criterion met"}
{"COMPOUND": "COc1cc2c3c(n(CCCn4cccn4)c(=O)c2cc1OC)-c1cc2c(cc1C3=O)OCO2", "STUDY_TARGET": "HOP-62", "CAT": "criterion met"}
{"COMPOUND": "COc1cc2c3c(n(CCCN4CCSCC4)c(=O)c2cc1OC)-c1cc2c(cc1C3=O)OCO2", "STUDY_TARGET": "HOP-62", "CAT": "criterion not met"}
{"COMPOUND": "COc1cc2c3c(n(CCCn4ccnc4)c(=O)c2cc1OC)-c1cc2c(cc1C3=O)OCO2", "STUDY_TARGET": "HOP-62", "CAT": "criterion met"}

Given the entry `COc1cc2c3c(n(CCCN4CCC(N)CC4)c(=O)c2cc1OC)-c1cc2c(cc1C3=O)OCO2` , would its reported GI50 be below 3000 nM?
criterion met

Next compound: `COc1cc2c3c(n(CCCNC4=NCCS4)c(=O)c2cc1OC)-c1cc2c(cc1C3=O)OCO2`
criterion met

Next compound: `COc1cc2c3c(n(CCCN4CCN(C)CC4)c(=O)c2cc1OC)-c1cc2c(cc1C3=O)OCO2`
criterion not met

====

Tested on: DU-145
EXPERIMENT: Cytotoxicity against human DU145 cell line
Type: functional
PARAMETER_MEASURED: GI50
The reply should read as a number followed by its unit.

Sample answers from the record:
{"COMPOUND": "COc1cc2c3c(n(CCCn4cncn4)c(=O)c2cc1OC)-c1cc2c(cc1C3=O)OCO2", "REPORTED_MEASUREMENT": "85 nM"}
{"COMPOUND": "O=C1c2ccccc2-c2c1c1ccc([N+](=O)[O-])cc1c(=O)n2CCCn1ccnc1", "REPORTED_MEASUREMENT": "17 nM"}

Could you now consider this next compound?
Quick check: GI50 of `COc1cc2c3c(n(CCCN4CCN(CCO)CC4)c(=O)c2cc1OC)-c1cc2c(cc1C3=O)OCO2` ?
275 nM
